Source listed as patent US20210246166A1.

human MASP2 IC50 reference
- tgt: Recombinant human MASP2 enzyme (fragment corresponding to amino acids 297-686, C-terminal His Tag) (human, UniProt O00187 297-686)
- Sequence (O00187 other isoform, or with tags, fused parts or gaps limits assumed): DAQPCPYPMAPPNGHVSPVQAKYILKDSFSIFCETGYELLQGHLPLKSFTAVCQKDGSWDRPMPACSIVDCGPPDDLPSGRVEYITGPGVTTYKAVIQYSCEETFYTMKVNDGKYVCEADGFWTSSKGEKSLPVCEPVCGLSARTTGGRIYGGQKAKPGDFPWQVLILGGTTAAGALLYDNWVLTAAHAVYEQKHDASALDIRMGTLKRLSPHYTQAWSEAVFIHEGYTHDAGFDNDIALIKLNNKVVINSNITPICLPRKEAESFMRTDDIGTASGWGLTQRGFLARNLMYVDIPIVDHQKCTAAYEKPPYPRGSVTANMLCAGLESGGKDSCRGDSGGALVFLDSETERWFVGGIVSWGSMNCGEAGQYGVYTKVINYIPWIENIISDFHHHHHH
- test.summary: cell-based or functional assay
Bridge positions count the residues as written; N and C are the ends. Square brackets hold non-standard residues; d marks the D form. Ends that are not written are not given here. * marks the point of attachment. Cyclobutylacetic = O=C(CC1CCC1)*; tBuAla = CC(C)(C)C[C@H](N)C(=O)O; Pen = CC(C)(S)[C@H](N)C(=O)O; NMeA = CN[C@@H](C)C(=O)O
Provide a numeric answer, followed by its unit.

1) [NMeA]ICSRS[tBuAla]PPICIPD-NH2 (disulfide 3-11; N-terminus assumed; SMILES CC[C@H](C)[C@H](NC(=O)[C@H](C)NC)C(=O)N[C@H]1CSSC[C@@H](C(=O)N[C@H](C(=O)N2CCC[C@H]2C(=O)N[C@@H](CC(=O)O)C(N)=O)[C@@H](C)CC)NC(=O)[C@H]([C@@H](C)CC)NC(=O)[C@@H]2CCCN2C(=O)[C@@H]2CCCN2C(=O)[C@H](CC(C)(C)C)NC(=O)[C@H](CO)NC(=O)[C@H](CCCNC(=N)N)NC(=O)[C@H](CO)NC1=O) [((N-Me)A)-IC+SRS-((tBu)A)-PPIC+IPD-NH2]; 440 nM

# context switch: different binder, same human MASP2 IC50
In: Given the binder Cyclobutylacetic-ICSRS[tBuAla]PPI[Pen]IP-NH2 (disulfide 2-10; SMILES CC[C@H](C)[C@H](NC(=O)CC1CCC1)C(=O)N[C@H]1CSSC(C)(C)[C@@H](C(=O)N[C@H](C(=O)N2CCC[C@H]2C(N)=O)[C@@H](C)CC)NC(=O)[C@H]([C@@H](C)CC)NC(=O)[C@@H]2CCCN2C(=O)[C@@H]2CCCN2C(=O)[C@H](CC(C)(C)C)NC(=O)[C@H](CO)NC(=O)[C@H](CCCNC(=N)N)NC(=O)[C@H](CO)NC1=O) [(Cyclobutylacetic)-IC+SRS-((tBu)A)-PPI-(Pen)+IP-NH2] , what is its reported human MASP2 IC50?
Out: 9.3 nM
